Origin of the recorded values: ChEMBL document CHEMBL1130028

Experiment summary: Binding affinity values for polyamine transporter was determined
Readout: Ki (µM)

// worked examples, Ki included
In [3]: df
Out[3]:
     molecule_smiles  readout_unit  experimental_result
0      CNCCCCNCCCCNC            µM                  5.5
1       CCNCCCNCCCCN            µM                  8.6
2  CCNCCCCCNCCCCCNCC            µM                  170
3       CCCNCCCNCCCN            µM                   33
4        NCCCCNCCCCN            µM                  3.4
5  CCCNCCCCNCCCCNCCC            µM                   67

[a] CCCNCCCCNCCCNCCC
[b] CNCCCCNCCCNC
For the pair a and b , which entry has the numerically smaller recorded Ki? Answer = label.
b
(b: 5.1 µM, a: 26 µM)

[I] CCCNCCCNCCCCN
[II] CNCCCCCNCCCCNC
Which numeric Ki is bigger, that of I or that of II ? Answer = label.
II

[A] CCNCCCNCCCN
[B] CCCNCCCCCNCCCCNCCC
For the pair A and B , which entry has the numerically smaller recorded Ki? Answer = label.
A

---

Measured on: S-adenosylmethionine decarboxylase proenzyme 1 (Mus musculus)
Experiment summary: Effect on S-Adenosyl-methionine decarboxylase (AdoMetDC) tested at 1 uM at 6 hour in L1210 cells
Assay type: functional, cell-based
Attribute: AdoMetDC
Output spec: scalar in %, unitless text.

// worked examples, AdoMetDC included
>>> df
    molecule_smiles  experimental_result
0  CCNCCCCCNCCCCNCC                   70
1    CCNCCCCNCCCNCC                   68

Recorded AdoMetDC of CNCCCCCNCCCCNC , please.
71

---

Experiment summary: Binding affinity values for polyamine transporter was determined
pKi: −log10 of the molar value.
Readout: pKi

[A] NCCCCNCCCN
[B] CNCCCCCNCCCCCNC
For the pair A and B , which entry has the numerically smaller recorded pKi? Answer = label.
B

---

Experiment summary: Binding affinity values for polyamine transporter was determined
pKi: −log10 of the molar value.
Readout: pKi

    molecule_smiles  experimental_result
0     CCCNCCCCNCCCN                 5.07
1   CCNCCCCNCCCCNCC                 4.72
2       CNCCCNCCCNC                 4.22
3    CCNCCCCNCCCNCC                 4.72
4  CCNCCCCCNCCCCNCC                 4.19

[A] CCCNCCCNCCCNCCC
[B] NCCCCCNCCCCCN
[C] CCCNCCCCNCCCCN
[D] NCCCCCNCCCCN
# desc sort on pKi across 4 compounds Give the labels in the order specified.
D, C, B, A
(D: 5.85, C: 5.30, B: 4.85, A: 3.90)
